Biological target: T1, Recombinant Human TNF-α/TNFSF1A (human, UniProt P01375 77-233)
T1 construct: also called hTNF-α; huTNFα
T1 sequence (P01375 77-233 limits assumed): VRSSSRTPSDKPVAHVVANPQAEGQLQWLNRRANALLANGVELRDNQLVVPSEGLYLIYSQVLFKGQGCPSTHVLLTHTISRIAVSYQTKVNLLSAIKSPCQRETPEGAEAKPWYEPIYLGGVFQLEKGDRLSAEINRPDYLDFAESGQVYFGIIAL
Assay: SPR (BIACORE), antibody captured, TNFα in solution
Description: The BIACORE assay (Biacore, Inc, Piscataway, N.J.) determines the affinity of antibodies with kinetic measurements of on-rate and off-rate constants. Binding of antibodies to a target antigen (for example, a purified recombinant target antigen) is determined by surface plasmon resonance-based measurements with a Biacore® 1000 or 3000 instrument (Biacore® AB, Uppsala, Sweden) using running HBS-EP (10 mM HEPES [pH 7.4], 150 mM NaCl, 3 mM EDTA, and 0.005% surfactant P20) at 25° C. […]
Measurement name: koff (s⁻¹)
The figure you give is taken to be in s⁻¹; do not add the unit.

[[record]]
binder = "AB369 (antibody, V domains shown, Full-length humanized antibody made in HEK 293-6E; also called hMAK199VH.2/hMAK199VL.1) VH: EVQLVQSGAEVKKPGASVKVSCKASGYTFTNYGMNWVRQAPGQGLEWMGWINTYTGEPTYADDFKGRVTMTTDTSTSTAYMELSSLRSEDTAVYYCARKFLTTVVVTDYAMDYWGQGTTVTVSS VL: DIQMTQSPSSLSASVGDRVTITCRASQDISNYLNWYQQKPGKAPKLLIYYTSRLQSGVPSRFSGSGSGTDFTLTISSLQPEDFATYYCQQGNTLPPTFGQGTKLEIK"
unit_text = "s⁻¹"
data_value = 0.001

[[record]]
binder = "AB366 (antibody, V domains shown, Full-length humanized antibody made in HEK 293-6E; also called hMAK199VH.1b/hMAK199VL.2) VH: EVQLVQSGSELKKPGASVKVSCKASGYTFTNYGMNWVRQAPGQGLEWMGWINTYTGEPTYADDFKGRFVFSLDTSVSTAYLQISSLKAEDTAVYFCARKFLTTVVVTDYAMDYWGQGTTVTVSS VL: DVVMTQSPAFLSVTPGEKVTITCRASQDISNYLNWYQQKPDQAPKLLIKYTSRLQSGVPSRFSGSGSGTDFTFTISSLEAEDAATYYCQQGNTLPPTFGQGTKLEIK"
unit_text = "s⁻¹"
data_value = 0.0015

[[record]]
binder = "AB359 (antibody, V domains shown, Full-length humanized antibody made in HEK 293-6E; also called hMAK199VH.1a/hMAK199VL.1b) VH: EIQLVQSGSELKKPGASVKVSCKASGYTFTNYGMNWVRQAPGQGLEWMGWINTYTGEPTYADDFKGRFVFSLDTSVSTAYLQISSLKAEDTAVYFCARKFLTTVVVTDYAMDYWGQGTTVTVSS VL: DIQMTQSPSSLSASVGDRVTITCRASQDISNYLNWYQQKPGKAPKLLIYYTSRLQSGVPSRFSGSGSGTDYTLTISSLQPEDFATYYCQQGNTLPPTFGQGTKLEIK"
unit_text = "s⁻¹"
data_value = 0.00093

[[record]]
binder = "AB379 (antibody, V domains shown, Full-length humanized antibody made in HEK 293-6E; also called hMAK199VH.2a/hMAK199VL.2a) VH: EIQLVQSGAEVKKPGASVKVSCKASGYTFTNYGMNWVRQAPGQGLEWMGWINTYTGEPTYADDFKGRFTFTLDTSTSTAYMELSSLRSEDTAVYFCARKFLTTVVVTDYAMDYWGQGTTVTVSS VL: DIVMTQSPAFLSVTPGEKVTITCRASQDISNYLNWYQQKPDQTVKLLIYYTSRLQSGVPSRFSGSGSGTDYTFTISSLEAEDAATYFCQQGNTLPPTFGQGTKLEIK"
unit_text = "s⁻¹"
data_value = 0.0016


Q) Reported koff, binder AB373 (antibody, V domains shown, Full-length humanized antibody made in HEK 293-6E; also called hMAK199VH.2/hMAK199VL.2a) VH: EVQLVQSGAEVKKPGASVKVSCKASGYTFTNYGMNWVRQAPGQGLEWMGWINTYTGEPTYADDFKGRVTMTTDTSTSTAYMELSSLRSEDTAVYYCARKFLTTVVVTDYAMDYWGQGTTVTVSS VL: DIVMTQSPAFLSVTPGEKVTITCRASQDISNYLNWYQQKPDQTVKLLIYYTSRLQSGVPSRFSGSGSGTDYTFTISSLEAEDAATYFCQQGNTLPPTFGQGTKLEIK : ____
A) 0.0012

Q) Reported koff, binder AB377 (antibody, V domains shown, Full-length humanized antibody made in HEK 293-6E; also called hMAK199VH.2a/hMAK199VL.1b) VH: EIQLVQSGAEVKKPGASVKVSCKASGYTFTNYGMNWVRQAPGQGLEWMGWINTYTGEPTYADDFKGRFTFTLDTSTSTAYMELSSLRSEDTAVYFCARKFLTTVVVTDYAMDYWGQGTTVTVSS VL: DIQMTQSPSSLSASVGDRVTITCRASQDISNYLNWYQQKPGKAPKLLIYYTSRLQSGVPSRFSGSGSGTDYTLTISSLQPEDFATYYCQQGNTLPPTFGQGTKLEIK : ____
A) 0.0015

Q) Reported koff, binder AB371 (antibody, V domains shown, Full-length humanized antibody made in HEK 293-6E; also called hMAK199VH.2/hMAK199VL.1b) VH: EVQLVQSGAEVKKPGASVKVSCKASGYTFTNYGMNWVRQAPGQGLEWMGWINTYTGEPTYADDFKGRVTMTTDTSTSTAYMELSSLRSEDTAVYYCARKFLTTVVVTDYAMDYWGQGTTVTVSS VL: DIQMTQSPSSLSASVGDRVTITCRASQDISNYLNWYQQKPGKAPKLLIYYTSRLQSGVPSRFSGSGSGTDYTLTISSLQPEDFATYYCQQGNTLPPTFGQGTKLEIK : ____
A) 0.0017

Q) Reported koff, binder AB378 (antibody, V domains shown, Full-length humanized antibody made in HEK 293-6E; also called hMAK199VH.2a/hMAK199VL.2) VH: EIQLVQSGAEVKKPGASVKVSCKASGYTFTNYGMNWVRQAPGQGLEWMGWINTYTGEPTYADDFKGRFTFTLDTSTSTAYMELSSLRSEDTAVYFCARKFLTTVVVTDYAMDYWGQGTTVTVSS VL: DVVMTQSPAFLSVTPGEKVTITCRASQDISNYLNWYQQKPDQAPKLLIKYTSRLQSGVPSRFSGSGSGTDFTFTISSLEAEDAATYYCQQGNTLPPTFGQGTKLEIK : ____
A) 0.0013

Q) Reported koff, binder AB381 (antibody, V domains shown, Full-length humanized antibody made in HEK 293-6E; also called hMAK199VH.2b/hMAK199VL.1) VH: EIQLVQSGAEVKKPGASVKVSCKASGYTFTNYGMNWVRQAPGQGLEWMGWINTYTGEPTYADDFKGRVTFTTDTSTSTAYMELSSLRSEDTAVYYCARKFLTTVVVTDYAMDYWGQGTTVTVSS VL: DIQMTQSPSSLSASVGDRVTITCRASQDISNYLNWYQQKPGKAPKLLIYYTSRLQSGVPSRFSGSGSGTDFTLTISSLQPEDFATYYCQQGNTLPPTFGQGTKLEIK : ____
A) 0.0017
